- assay_remarks: Single dose PK in healthy subjects (Cohorts 1, 2, S1 and S2), plasma
- Format: in vivo, human
- measurement_setup: human, plasma, intravenous, 56 mg; 2 hr; read-out: Plasma concentration, Maximum
quantity_name: concentration at 2 h (ng/mL)

• COC(=O)N1CCC[C@H](NS(C)(=O)=O)[C@@H]1CO[C@H]1CC[C@@H](c2ccccc2)CC1 = 114

* * *

- assay_remarks: Single dose PK in healthy subjects (Cohorts 1, 2, S1 and S2), plasma
- Format: in vivo, human
- measurement_setup: human, plasma, intravenous, 112 mg; 1 hr; read-out: Plasma concentration, Maximum
quantity_name: concentration at 1 h (ng/mL)

• COC(=O)N1CCC[C@H](NS(C)(=O)=O)[C@@H]1CO[C@H]1CC[C@@H](c2ccccc2)CC1 [Compound A] = 172

* * *

- assay_remarks: Single dose PK in patients with narcolepsy (Cohorts 5, 6 and 7), plasma
- Assay type: in vivo, human
- measurement_setup: human, plasma, iv, 11.2 mg; 9 hr; NT1, single 9 h IV infusion; read-out: Plasma concentration, Mean
quantity_name: concentration at 9 h (ng/mL)

* COC(=O)N1CCC[C@H](NS(C)(=O)=O)[C@@H]1CO[C@H]1CC[C@@H](c2ccccc2)CC1 | 21.2

* * *

- assay_remarks: Single dose PK in healthy subjects (Cohorts 1, 2, S1 and S2), plasma
- Type: in vivo, human
- measurement_setup: human, plasma, iv, 134.4 mg, 134.4 mg single IV infusion, healthy subjects; read-out: Vss Median
quantity_name: Vd (L)

- COC(=O)N1CCC[C@H](NS(C)(=O)=O)[C@@H]1CO[C@H]1CC[C@@H](c2ccccc2)CC1: 87

* * *

- assay_remarks: Single dose PK in healthy subjects (Cohorts 1, 2, S1 and S2), plasma
- Format: in vivo, human
- measurement_setup: human, plasma, intravenous, 180 mg; 9 hr; read-out: Plasma concentration, Median
quantity_name: concentration at 9 hr (ng/mL)

- COC(=O)N1CCC[C@H](NS(C)(=O)=O)[C@@H]1CO[C@H]1CC[C@@H](c2ccccc2)CC1: 316

* * *

- assay_remarks: Single dose PK in healthy subjects (Cohorts 1, 2, S1 and S2), plasma
- Type: in vivo, human
- measurement_setup: human, plasma, intravenous, 112 mg; 6 hr; read-out: Plasma concentration, Minimum
quantity_name: concentration at 6 h (ng/mL)

• COC(=O)N1CCC[C@H](NS(C)(=O)=O)[C@@H]1CO[C@H]1CC[C@@H](c2ccccc2)CC1 [Compound A] = 154

* * *

- assay_remarks: Single dose PK in healthy subjects (Cohorts 1, 2, S1 and S2), plasma
- Type: in vivo, human
- measurement_setup: human, plasma, iv, 112 mg, 112 mg single IV infusion, healthy subjects; read-out: Cmax Median
quantity_name: Cmax (ng/mL)

* COC(=O)N1CCC[C@H](NS(C)(=O)=O)[C@@H]1CO[C@H]1CC[C@@H](c2ccccc2)CC1 [Compound A] | 250

* * *

- assay_remarks: Single dose PK in healthy subjects (Cohorts 1, 2, S1 and S2), plasma
- Format: in vivo, human
- measurement_setup: human, plasma, iv, 56 mg, 56 mg single IV infusion, healthy subjects; read-out: Cmax Geo Mean
quantity_name: Cmax (ng/mL)

- COC(=O)N1CCC[C@H](NS(C)(=O)=O)[C@@H]1CO[C@H]1CC[C@@H](c2ccccc2)CC1: 123

The origin of these recorded values is patent US20220339143A1.
